Experiment: Monkey pharmacokinetic study
Settings: male, cynomolgus monkey, plasma, iv, 1 mg/kg, Terminal T1/2, monkey IV (n=2, range); PF-07304814 […], PF-00835231 1.0mg/kg
READOUT_KIND: half-life

Qu. For the compound COc1cccc2[nH]c(C(=O)N[C@@H](CC(C)C)C(=O)N[C@@H](C[C@@H]3CCNC3=O)C(=O)CO)cc12 [PF-00835231] , report half-life.
Ans. < 2 h

---

System: CYP3A4/5
Assay: Reversible CYP inhibition in human liver microsomes
Conditions: human, human liver microsomes, pH 7.4, probe testosterone (tst), Percent of Control Activity, CYP 3A4/5 (tst), 0.979 µM, Zero-Minute Preincubation
READOUT_KIND: activity at 0 min, 0.979 µM (%)
Respond with the bare value in %.

Qu. For the compound COc1cccc2[nH]c(C(=O)N[C@@H](CC(C)C)C(=O)N[C@@H](C[C@@H]3CCNC3=O)C(=O)CO)cc12 [PF-00835231] , report activity at 0 min, 0.979 µM.
Ans. 114

---

Target: CYP2D6 (Homo sapiens, UniProt P10635)
Sequence (P10635 whole entry): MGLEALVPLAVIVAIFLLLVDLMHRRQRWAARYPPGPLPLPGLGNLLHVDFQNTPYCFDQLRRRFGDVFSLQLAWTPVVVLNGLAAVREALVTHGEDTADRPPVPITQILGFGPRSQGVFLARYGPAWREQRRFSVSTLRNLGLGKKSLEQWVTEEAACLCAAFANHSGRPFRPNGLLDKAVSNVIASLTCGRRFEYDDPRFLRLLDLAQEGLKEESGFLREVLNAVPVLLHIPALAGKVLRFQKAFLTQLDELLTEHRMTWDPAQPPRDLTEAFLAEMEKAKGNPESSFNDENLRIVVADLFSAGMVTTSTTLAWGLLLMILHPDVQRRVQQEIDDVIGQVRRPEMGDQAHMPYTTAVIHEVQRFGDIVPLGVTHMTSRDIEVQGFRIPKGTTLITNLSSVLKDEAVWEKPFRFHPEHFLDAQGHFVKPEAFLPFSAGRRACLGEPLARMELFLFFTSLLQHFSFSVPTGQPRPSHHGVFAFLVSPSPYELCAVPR
Assay: Reversible CYP inhibition in human liver microsomes
Details: human, microsomes, pH 7.4, Percent of Control Activity, CYP 2D6, 2.09 µM, Zero-Minute Preincubation
READOUT_KIND: activity at 2.09 µM
Be sure to follow the number with its unit.

Qu. For the compound COc1cccc2[nH]c(C(=O)N[C@@H](CC(C)C)C(=O)N[C@@H](C[C@@H]3CCNC3=O)C(=O)CO)cc12 [PF-00835231] , report activity at 2.09 µM.
Ans. 99.9%

---

Biological target: CYP2C8 (Homo sapiens)
Sequence (P10632 whole entry): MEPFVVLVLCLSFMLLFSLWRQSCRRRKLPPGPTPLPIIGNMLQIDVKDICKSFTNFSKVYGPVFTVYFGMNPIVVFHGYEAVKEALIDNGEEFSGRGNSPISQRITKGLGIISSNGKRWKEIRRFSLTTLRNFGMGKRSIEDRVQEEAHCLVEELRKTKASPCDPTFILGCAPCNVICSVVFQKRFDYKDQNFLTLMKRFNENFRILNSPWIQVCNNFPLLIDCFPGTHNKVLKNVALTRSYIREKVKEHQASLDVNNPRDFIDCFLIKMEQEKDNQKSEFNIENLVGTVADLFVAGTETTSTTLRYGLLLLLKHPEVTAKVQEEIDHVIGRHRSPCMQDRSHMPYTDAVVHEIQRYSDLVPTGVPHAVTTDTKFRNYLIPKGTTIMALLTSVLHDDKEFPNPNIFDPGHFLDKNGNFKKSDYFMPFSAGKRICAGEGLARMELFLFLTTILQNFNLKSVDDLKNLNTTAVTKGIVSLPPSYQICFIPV
Assay: Reversible CYP inhibition in human liver microsomes
Settings: Amodiaquine N-dealkylation; T30
pIC50: −log10 of the molar value.
READOUT_KIND: pIC50

Qu. Give CYP2C8 (Homo sapiens) pIC50 for the following compound: COc1cccc2[nH]c(C(=O)N[C@@H](CC(C)C)C(=O)N[C@@H](C[C@@H]3CCNC3=O)C(=O)COP(=O)(O)O)cc12 [PF-07304814]
Ans. < 4.00

---

Tested on: HCoV-229E
Experiment: Viral CPE assay in MRC-5 cells (CellTiter Glo)
Assay type: cell-based
Conditions: Human coronavirus 229E, MRC5, MRC-5; minus efflux inhibitor; individual determinations by date
READOUT_KIND: EC50 (nM)
Respond with the bare value in nM.

Qu. For the compound COc1cccc2[nH]c(C(=O)N[C@@H](CC(C)C)C(=O)N[C@@H](C[C@@H]3CCNC3=O)C(=O)CO)cc12 , report EC50.
Ans. 80.6

---

Assay: Rat pharmacokinetic study
Settings: male, Wistar-Hannover, rat, plasma, iv, 2 mg/kg, Vdss, Vdss input
READOUT_KIND: Vd (L/kg)
Respond with the bare value in L/kg.

Qu. For the compound COc1cccc2[nH]c(C(=O)N[C@@H](CC(C)C)C(=O)N[C@@H](C[C@@H]3CCNC3=O)C(=O)CO)cc12 [PF-00835231] , report Vd.
Ans. 0.75

---

Biological target: CYP2C8 (Homo sapiens)
Assay: Reversible CYP inhibition in human liver microsomes
Conditions: human, microsomes, pH 7.4, Percent of Control Activity, CYP 2C8, 20.5 µM, 30-Minute Preincubation
READOUT_KIND: activity at 20.5 µM (%)
Respond with the bare value in %.

Qu. For the molecule COc1cccc2[nH]c(C(=O)N[C@@H](CC(C)C)C(=O)N[C@@H](C[C@@H]3CCNC3=O)C(=O)CO)cc12 [PF-00835231] , report activity at 20.5 µM.
Ans. 86
